Assay: NCI Yeast Anticancer Drug Screen. Data for the mec2-1 strain (AID 157)
Settings: S. cerevisiae mec2-1 strain, at 50.0 µM, active compounds read high
About 79,000 compounds went through this panel and 15% of them were active in at least one assay; those are over-represented in the sample as a whole.
QUANTITY NAME: growth inhibition (%)

[[record]]
compound = "CCSCC1OC(n2cnc3c(=S)nc(N)[nH]c32)C(O)C1O (stereo not drawn)"
unit_name = "%"
observed = 10.1

[[record]]
compound = "CC(=O)c1cccc(NC(=O)OCC2CC3C=CC2C3)c1 (stereo not drawn)"
unit_name = "%"
observed = 27.1

[[record]]
compound = "CCCCOCN1COCN(COCCCC)C1=O"
unit_name = "%"
observed = -17.4

[[record]]
compound = "CS(=O)(=O)Oc1c(Cl)cc(Cl)c2cccnc12"
unit_name = "%"
observed = -1.1

[[record]]
compound = "O=C(C=C1CCCCC1)c1ccccc1"
unit_name = "%"
observed = -6.35

[[record]]
compound = "COc1ccc(/C=C/c2c([N+](=O)[O-])c(=O)n(C)c(=O)n2C)cc1"
unit_name = "%"
observed = 0.95

[[record]]
compound = "CC(=O)O[C@H]1C[C@H]2[C@@H](OC(C)=O)/C=C3\\C[C@](C)(C(=O)[C@H](O)C(=C1C)C2(C)C)[C@@H](O)C[C@@H]3OC(=O)[C@H](O)[C@H](c1ccccc1)N(C)C"
unit_name = "%"
observed = -0.45

[[record]]
compound = "Cc1nc(NCCNCCO)nc2c1C(=O)Nc1ccccc1N2"
unit_name = "%"
observed = -50.8


###

Experiment: NCI Yeast Anticancer Drug Screen. Data for the mlh1 rad18 strain (AID 175)
Settings: S. cerevisiae mlh1 rad18 strain growth inhibition; at 50.0 µM; active compounds read high
Description: Growth inhibition of yeast strains with defined genetic alterations is measured as a screen for potential anti-cancer activity. Selected strains with alterations in DNA damage repair or cell cycle control were exposed to compounds and growth inhibition was measured relative to vehicle treated controls. The strain used in this assay is mlh1 rad18
This is part of a sample that, as a whole, favours compounds with a hit. Of some 79,000 tested, about 15% had one in any assay.
QUANTITY NAME: growth inhibition (%)

[[record]]
molecule = "Nc1ccn(C2OC(COP(=O)(O)O)C(O)C2O)c(=O)n1 (configuration not stated) (tested in a mixture with another compound)"
observed = 14.1

[[record]]
molecule = "O=C(O)c1cc(C2CC2)nc2ccccc12"
observed = 24.6

[[record]]
molecule = "c1ccc2c(-c3ccncc3)c3ccccc3cc2c1"
observed = 20.3

[[record]]
molecule = "CNC(=S)NNC(=O)c1ccncc1"
observed = 13.3

[[record]]
molecule = "CCOC(=O)/N=[N+](\\[O-])c1ccccc1"
observed = 86.8

[[record]]
molecule = "O=C(O)CCC(=O)OCc1ccccc1"
observed = 0.8

[[record]]
molecule = "Cc1ccc([N+](=O)[O-])cc1NC(=O)C(=O)Cc1cc(=O)oc2cc(O)ccc12"
observed = -6.25

[[record]]
molecule = "O=C(NCCO)c1cc2ccccc2cc1O"
observed = 7.55

[[record]]
molecule = "O=S(=O)(Nc1nc2ccccc2nc1N1CCCCCC1)c1ccccc1"
observed = -23.8

[[record]]
molecule = "c1ccc2cc(C3OCCCO3)ccc2c1"
observed = 4.2

[[record]]
molecule = "COc1ccccc1C(=O)N/N=C\\c1c[nH]c2ccccc12"
observed = -8.3

[[record]]
molecule = "COC(=O)[C@]12CCC(C)(C)C[C@H]1C1=CC[C@@H]3[C@@]4(C)CC[C@H](OC5OC(CO)C(O)C(O)C5OC5OC(CO)C(O)C(O)C5O)C(C)(C)[C@@H]4CC[C@@]3(C)[C@]1(C)CC2 (some centres not stated)"
observed = 89.5

[[record]]
molecule = "CCCCCCCCCCCC(=O)O (tested in a mixture with another compound)"
observed = -13.5

[[record]]
molecule = "Cc1ccc(CN(CCO)Cc2ccccc2)cc1"
observed = 47.1

[[record]]
molecule = "c1ccc(-c2nnc(-c3ccc4ccccc4c3)o2)cc1"
observed = -2

[[record]]
molecule = "N#CC(C#N)=Cn1c(=S)[nH]c2ccc([N+](=O)[O-])cc21"
observed = -4.55

[[record]]
molecule = "BrC1=C(c2ccccc2)C2CCCCC2C1(Br)c1ccccc1 (configuration not stated)"
observed = 98

[[record]]
molecule = "CC(=O)CCC(=O)OCc1ccccc1"
observed = 4.2

[[record]]
molecule = "N#CC1(CCCI)CCCC1"
observed = 6.1

[[record]]
molecule = "O=C1NC(C(=O)O)CC1O (configuration not stated)"
observed = 17.6

[[record]]
molecule = "COC(=O)c1cccnc1F"
observed = -2.45

[[record]]
molecule = "COC(=O)C(O)CC1=CC[C@@H]2CC=C[C@H]12 (some centres not stated)"
observed = -7.65

[[record]]
molecule = "N#C/C(=C/n1c(=S)sc2ccccc21)c1nc2ccccc2s1"
observed = 30.8

[[record]]
molecule = "O=C(Nc1cccc(F)c1)Sc1ccc(Cl)cc1"
observed = 41

[[record]]
molecule = "O=C(Cc1cccc(CC(=O)c2ccccc2)n1)c1ccccc1"
observed = 10.4

[[record]]
molecule = "O=C(O)c1cscc1Cc1ccccc1"
observed = 5.45

[[record]]
molecule = "OCC(O)COCCCCCCCCCCCCCC1C=CCC1 (configuration not stated)"
observed = -30.7

[[record]]
molecule = "O=C(c1ccc(F)cc1)c1ccc2ccccc2c1"
observed = 5

[[record]]
molecule = "O=C(Nc1ccc(Cl)cc1)Oc1ccc(Br)cc1Br"
observed = 13.2

[[record]]
molecule = "c1scc2c1COCCOCCOCCOCc1cscc1COCCOCCOCCOC2"
observed = -46.5

[[record]]
molecule = "CCCCCCC(Br)CCCC (configuration not stated)"
observed = -4.9

[[record]]
molecule = "C=Cc1c(C)c2cc3[nH]c(cc4nc(cc5nc(cc1[nH]2)C(C)=C5CCC(=O)OC)C(CCC(=O)OC)=C4C)c(C)c3C=C"
observed = -5.85

[[record]]
molecule = "CCOC(=O)c1ccc(N(CC(=O)O)S(=O)(=O)c2ccc(C)cc2)s1"
observed = -8.8

[[record]]
molecule = "CCCCCCCCCCCCCC(=O)OCC(=O)c1ccc(-c2ccccc2)cc1"
observed = 27.8

[[record]]
molecule = "CC(NC(CC12CC3CC(CC(C3)C1)C2)C(N)=O)c1ccccc1 (configuration not stated)"
observed = -18.4

[[record]]
molecule = "O=C(OC1CC2CCC23CCC13)c1ccccc1 (configuration not stated)"
observed = -18.9

[[record]]
molecule = "O=S(=O)(Nc1ccc(C(F)(F)F)cc1)c1ccc(F)cc1"
observed = 28.1

[[record]]
molecule = "COC(=O)c1ccc(SCCC(=O)CNc2nc(N)nc(N)c2[N+](=O)[O-])cc1"
observed = 3.15

[[record]]
molecule = "Cn1cnc2c(=O)[nH]cnc21"
observed = -8.5

[[record]]
molecule = "Cc1ccnc2[nH]c(-c3cccc(Cl)c3)cc(=O)c12"
observed = -58.5

[[record]]
molecule = "C1=C(Oc2ccccc2)C2CC1C1CCCC21 (configuration not stated)"
observed = 1.85

[[record]]
molecule = "CCCCCC/C=N\\NC(N)=S"
observed = 28.2


###

In this section we review reported growth inhibition values for a set of molecules.
Experiment: NCI Yeast Anticancer Drug Screen. Data for the rad50 strain (AID 155);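 note: 0% = growth of vehicle-only cultures of the same strain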
Details: S. cerevisiae rad50 strain growth inhibition; at 50.0 µM; active compounds read high
This is part of a sample that, as a whole, favours compounds with a hit. Of some 79,000 tested, about 15% had one in any assay.
QUANTITY NAME: growth inhibition (%)

[[record]]
molecule = "COC(=O)CN1C(=O)OC(c2ccccc2)C1=O (configuration not stated)"
observed = -0.4

[[record]]
molecule = "Cc1nc2nnc(N)n2nc1C"
observed = 10.1

[[record]]
molecule = "CCCCS(=O)CC(CO)NC(=O)/C=C/c1c(C)[nH]c(=O)[nH]c1=O (configuration not stated)"
observed = 12.9

[[record]]
molecule = "C=CCOC(=O)C(C)OC(=O)/C(Cl)=C/C(=O)O (configuration not stated)"
observed = -2.45

[[record]]
molecule = "NC(=O)c1ncnc2nc[nH]c12"
observed = -14.2

[[record]]
molecule = "c1ccc2c(c1)NC1(CCCCC1)S2"
observed = 5.35

[[record]]
molecule = "CC(CC(C)(C)C)C(=O)O (configuration not stated)"
observed = -4.05

[[record]]
molecule = "Cc1ccccc1N1C(=O)[N+]2(CCCCC2)N=C1[O-]"
observed = -11.1

[[record]]
molecule = "C=CCOC(=O)OCC=C"
observed = 4

[[record]]
molecule = "Nc1cc2c3c(cccc3c1Br)C(=O)NC2=O"
observed = 85.2

[[record]]
molecule = "O=Cc1ccc(F)cc1[N+](=O)[O-]"
observed = 1.1

[[record]]
molecule = "COc1ccc2nc(NCN3C(=O)c4ccccc4C3=O)sc2c1"
observed = 5.05

